- Test system: bio-printed kidney organoids
- assayRemarks: Organoid viability assessment by ATP content (CellTiter-Glo / CellTiter-Glo 3D) after drug treatment
- measurementSetup: Homo sapiens, 72 h, read-out: 6-well IC50 (viability, ATP content)
experimentalReadout: IC50
Number first, unit second.

Ask: For the molecule COc1cccc2c1C(=O)c1c(O)c3c(c(O)c1C2=O)C[C@@](O)(C(=O)CO)C[C@@H]3O[C@H]1C[C@H](N)[C@H](O)[C@H](C)O1 , give its measured IC50 value.
Result: 3.9 µM
